These measurements were taken from patent US10919852B2.

system-tested: human PD-L1 / Human PD-1 (Homo sapiens (Human), UniProt Q9NZQ7)
Sequence (Q9NZQ7 19-239): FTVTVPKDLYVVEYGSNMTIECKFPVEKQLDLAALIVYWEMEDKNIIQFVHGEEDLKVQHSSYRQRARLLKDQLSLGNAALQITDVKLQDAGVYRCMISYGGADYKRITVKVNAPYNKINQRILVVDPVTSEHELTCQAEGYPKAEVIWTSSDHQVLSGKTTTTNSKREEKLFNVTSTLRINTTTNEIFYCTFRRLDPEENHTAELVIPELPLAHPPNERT
protocol-summary: Enzyme-Linked Immunosorbent Assay (ELISA), PD-1/PD-L1 binding
conditions: plate-coated human PD-L1, biotinylated human PD-1
test-readout: IC50

molecule	test-readout	assay-value
Cc1c(OCCCN2CCC(O)CC2)cccc1-c1cccc2c1C[C@@H](F)[C@@H]2Oc1cc(OCc2cncc(C#N)c2)c(CN[C@@H](CO)C(=O)O)cc1Cl	IC50	< 5 nM
C[C@@H](O)[C@H](NCc1cc(Cl)c(O[C@H]2CCc3c(-c4cccc(OCCCN5CC(O)C5)c4Cl)cccc32)cc1OCc1cncc(C#N)c1)C(N)=O	IC50	< 5 nM
CCOc1cc(O[C@H]2CCc3c(-c4cccc(OCCCN5CCC5(C)C)c4C)cccc32)c(Cl)cc1CN(C)CCC(=O)OC	IC50	5 to 500 nM

Report IC50 under test system human PD-L1 / Human PD-1 (Homo sapiens (Human), UniProt Q9NZQ7) for CCOc1cc(O[C@@H]2c3cccc(-c4cccc(OCCCN5CC(O)C5)c4Cl)c3C[C@@H]2F)c(Cl)cc1CN[C@@](C)(CO)C(=O)O . 5 to 500 nM

Report IC50 under test system human PD-L1 / Human PD-1 (Homo sapiens (Human), UniProt Q9NZQ7) for N#Cc1cncc(COc2cc(O[C@H]3CCc4c(-c5cccc(OCCCN6CCC(F)CC6)c5Cl)cccc43)c(Cl)cc2CN[C@@H]2CCOC[C@H]2F)c1 [drawing 224] . 5 to 500 nM

Report IC50 under test system human PD-L1 / Human PD-1 (Homo sapiens (Human), UniProt Q9NZQ7) for CCOc1cc(O[C@H]2CCc3c(-c4cccc(OCCCN5CCC5(C)C)c4C)cccc32)c(Cl)cc1CNCCn1nn[nH]c1=O . 5 to 500 nM

Report IC50 under test system human PD-L1 / Human PD-1 (Homo sapiens (Human), UniProt Q9NZQ7) for Cc1c(OCCCN2CCC[C@H](O)C2)cccc1-c1cccc2c1CC[C@@H]2Oc1cc(OCc2cncc(C#N)c2)c(CN[C@H](C(=O)O)[C@@H](C)O)cc1Cl . < 5 nM

Report IC50 under test system human PD-L1 / Human PD-1 (Homo sapiens (Human), UniProt Q9NZQ7) for CCOC(=O)[C@@H](NCc1cc(Cl)c(O[C@H]2CCc3c(-c4cccc(OCCCN5CCC(O)CC5)c4C)cccc32)cc1OCc1cncc(C#N)c1)[C@@H](C)O . 5 to 500 nM

Report IC50 under test system human PD-L1 / Human PD-1 (Homo sapiens (Human), UniProt Q9NZQ7) for Cc1c(OCCCN2CCC(F)CC2)cccc1-c1cccc2c1CC[C@@H]2Oc1cc(OCc2cc(C#N)cc(C#N)c2)c(CN[C@H]2CCOC[C@H]2O)cc1Cl . < 5 nM

Report IC50 under test system human PD-L1 / Human PD-1 (Homo sapiens (Human), UniProt Q9NZQ7) for CCOc1cc(O[C@H]2CCc3c(-c4cccc(OCCCN5CCC(F)CC5)c4Cl)cccc32)c(Cl)cc1CN[C@@H]1CCOC[C@H]1O . 5 to 500 nM

Report IC50 under test system human PD-L1 / Human PD-1 (Homo sapiens (Human), UniProt Q9NZQ7) for Cc1c(OCCCN2CCC(O)CC2)cccc1-c1cccc2c1CC[C@H]2Oc1cc(OCc2cncc(C#N)c2)c(CN[C@H](C(=O)O)[C@@H](C)O)cc1Cl . < 5 nM

Report IC50 under test system human PD-L1 / Human PD-1 (Homo sapiens (Human), UniProt Q9NZQ7) for CCOc1cc(O[C@H]2CCc3c(-c4cccc(OCCCN5CCC5(C)C)c4C)cccc32)c(Cl)cc1CN(C)CC(C)C(=O)O (stereo partly shown) . 5 to 500 nM

Report IC50 under test system human PD-L1 / Human PD-1 (Homo sapiens (Human), UniProt Q9NZQ7) for Cc1c(OCCCN2CCCCC2)cccc1-c1cccc2c1CC[C@@H]2Oc1cc(OCc2cncc(C#N)c2)c(CNC[C@H]2CCC(=O)N2)cc1Cl . < 5 nM
